Entries annotated with measured pKi
targetSystem: Human α2δ-1 Subunit of Cav2.2 Calcium Channel (Homo sapiens)
test: Human α2δ-1 subunit of Cav2.2 calcium channel assay, [3H]-Gabapentin binding
measurementSetup: human α2δ-1 enriched membranes, 15 nM [3H]-Gabapentin
Description: Human α2δ-1 Subunit of Cav2.2 Calcium Channel Assay Human α2δ-1 enriched membranes (2.5 μg) were incubated with 15 nM of radiolabeled [3H]-Gabapentin in assay buffer containing Hepes-KOH 10 mM, pH 7.4. NSB (non specific binding) was measured by adding 10 μM pregabalin. The binding of the test compound was measured at five different concentrations. […] Filter plates were dried at 60° C. for 1 hour and 30 μl of scintillation cocktail were added to each well before radioactivity reading. […]
pKi: −log10 of the molar value.

Completed entries (count: 4):
>>> reportedresult("CNCCC(Cc1ccccc1)Oc1cccc(-n2nc3c(N(C)C)nnc(C)c3c2C)c1 (stereo not drawn)")
"5.30 to 6.30"
>>> reportedresult("CNCCC(Oc1cccc(-n2nc3c(N(C)C)nnc(C)c3c2C)c1)c1cccc(C(N)=O)c1 (stereo not drawn)")
"5.30 to 6.30"
>>> reportedresult("CNCC(Oc1cccc(-n2nc3c(N(C)C)nnc(C)c3c2C)c1)c1ccccc1 (stereo not drawn)")
"5.30 to 6.30"
>>> reportedresult("CNCCC(Oc1cccc(-n2nc3c(N(C)C)nnc(C)c3c2C)c1)c1ccccc1F (stereo not drawn)")
"5.30 to 6.30"

// below: pKi requested for another compound
# CNCCC(Oc1cccc(-n2nc3c(N(C)C)nnc(C)c3c2C)c1)c1cncs1 (stereo not drawn) with Human α2δ-1 Subunit of Cav2.2 Calcium Channel (Homo sapiens): pKi is > 6.30

====

Entries annotated with measured Ki
targetSystem: Human α2δ-1 Subunit of Cav2.2 Calcium Channel (Homo sapiens, UniProt P54289)
Sequence (P54289 25-1103): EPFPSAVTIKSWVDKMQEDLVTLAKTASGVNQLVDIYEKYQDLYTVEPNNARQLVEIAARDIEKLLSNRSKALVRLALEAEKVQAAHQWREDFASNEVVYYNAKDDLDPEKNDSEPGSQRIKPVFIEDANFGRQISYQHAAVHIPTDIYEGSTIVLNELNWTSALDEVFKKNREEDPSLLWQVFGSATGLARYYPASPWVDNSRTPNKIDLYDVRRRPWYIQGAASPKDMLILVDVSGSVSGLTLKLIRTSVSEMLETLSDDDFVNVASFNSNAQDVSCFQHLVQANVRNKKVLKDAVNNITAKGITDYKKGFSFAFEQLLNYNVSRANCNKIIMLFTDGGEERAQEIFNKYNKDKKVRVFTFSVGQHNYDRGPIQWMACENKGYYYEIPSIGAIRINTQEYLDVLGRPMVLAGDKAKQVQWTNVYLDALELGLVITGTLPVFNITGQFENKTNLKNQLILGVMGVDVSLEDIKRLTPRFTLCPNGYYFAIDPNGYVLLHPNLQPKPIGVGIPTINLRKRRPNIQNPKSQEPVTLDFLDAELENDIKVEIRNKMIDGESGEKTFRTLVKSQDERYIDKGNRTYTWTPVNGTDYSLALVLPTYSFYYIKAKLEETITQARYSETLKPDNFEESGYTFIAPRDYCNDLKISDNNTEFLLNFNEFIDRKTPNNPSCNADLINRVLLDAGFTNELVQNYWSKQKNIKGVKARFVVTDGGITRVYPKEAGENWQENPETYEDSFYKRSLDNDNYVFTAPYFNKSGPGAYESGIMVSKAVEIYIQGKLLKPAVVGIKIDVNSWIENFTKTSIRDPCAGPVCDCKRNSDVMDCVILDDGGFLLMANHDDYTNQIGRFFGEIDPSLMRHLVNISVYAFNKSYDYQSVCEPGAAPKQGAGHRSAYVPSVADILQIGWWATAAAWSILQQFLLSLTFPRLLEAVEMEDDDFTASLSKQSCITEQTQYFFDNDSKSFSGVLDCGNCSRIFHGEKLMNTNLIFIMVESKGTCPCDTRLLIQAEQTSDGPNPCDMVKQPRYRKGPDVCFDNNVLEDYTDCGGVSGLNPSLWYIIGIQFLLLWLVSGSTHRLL
test: Human α2δ-1 subunit of Cav2.2 calcium channel assay, [3H]-Gabapentin binding
measurementSetup: human α2δ-1 enriched membranes, 15 nM [3H]-Gabapentin

>>> reportedresult("Cc1nnc(N(C)C)c2nn(-c3cccc(OC(CCNCC(F)F)c4ccccc4)c3)c(C)c12 (stereo not shown)")
"500 to 5000 nM"
>>> reportedresult("CNCC[C@@H](Oc1cccc(-n2nc3c(N(C)C)nnc(C)c3c2C)c1)c1ccccc1F")
"500 to 5000 nM"
>>> reportedresult("CNCCC(Oc1cccc(-n2nc3c(N(C)C)nnc(C)c3c2C)c1)c1cc(F)cc(F)c1 (stereo not shown)")
"500 to 5000 nM"

For record CNCC[C@H](Oc1cccc(-n2nc3c(N(C)C)nnc(C)c3c2C)c1)c1cccnc1 the listed Ki is < 500 nM

====

targetSystem: Human α2δ-1 Subunit of Cav2.2 Calcium Channel (Homo sapiens, UniProt P54289)
test: Human α2δ-1 subunit of Cav2.2 calcium channel assay, [3H]-Gabapentin binding
measurementSetup: human α2δ-1 enriched membranes, 15 nM [3H]-Gabapentin
pKi: −log10 of the molar value.
experimentalEndpoint: pKi

Completed entries (count: 5):
>>> reportedresult("CNC[C@H](Oc1cccc(-n2nc3c(N(C)C)nnc(C)c3c2C)c1)c1ccccc1 [Example 60]")
"5.30 to 6.30"
>>> reportedresult("Cc1nnc(N(C)C)c2nn(-c3cccc(OC(CCN(C)C)c4ccccc4)c3)c(C)c12 (stereo not drawn) [Example 2]")
"5.30 to 6.30"
>>> reportedresult("Cc1nnc(N(C)C)c2nn(-c3cccc(O[C@H](c4ccccc4)[C@@H]4CNCCO4)c3)c(C)c12 (racemic) [Example 12]")
"5.30 to 6.30"
>>> reportedresult("CNCCC(Oc1cccc(-n2nc3c(N(C)C)nnc(C)c3c2C)c1)c1cccc(F)c1 (stereo not drawn) [Example 5]")
"5.30 to 6.30"
>>> reportedresult("CNCC[C@H](Oc1cccc(-n2nc3c(N(C)C)nnc(C)c3c2C)c1)c1ccccc1F [Example 63]")
"5.30 to 6.30"

For record CNCC[C@H](Oc1cccc(-n2c(C)c3c(C)nnc(C)c3c2C)c1)c1cccc(F)c1 [Example 68] the listed pKi is ≤ 5.30

For record Cc1nnc(N(C)C)c2nn(-c3cccc(OC(CCN)c4ccccc4F)c3)c(C)c12 (stereo not drawn) [Example 19] the listed pKi is 5.30 to 6.30

For record CNCCC(Oc1cccc(-n2nc3c(N(C)C)nnc(C)c3c2C)c1)c1nccs1 (stereo not drawn) [Example 34] the listed pKi is > 6.30

For record CNCC(Oc1cccc(-n2nc3c(N(C)C)nnc(C)c3c2C)c1)c1cccnc1 (stereo not drawn) [Example 45] the listed pKi is 5.30 to 6.30

For record CNCC[C@H](Oc1cccc(-n2nc3c(N(C)C)nnc(C)c3c2C)c1)c1ccccc1 [Example 58] the listed pKi is 5.30 to 6.30

For record CNCCC(Oc1cccc(-n2c(C)c3c(C)nnc(C)c3c2C)c1)c1ccccc1F (stereo not drawn) [Example 66] the listed pKi is 5.30 to 6.30

For record CNCC[C@@H](Oc1cccc(-n2c(C)c3c(C)nnc(C)c3c2C)c1)c1cccc(F)c1 [Example 69] the listed pKi is > 6.30

For record CNC[C@@H](Oc1cccc(-n2nc3c(N(C)C)nnc(C)c3c2C)c1)c1ccccc1 [Example 61] the listed pKi is 5.30 to 6.30

For record Cc1nnc(N(C)C)c2nn(-c3cccc(OC(CCN)c4ccccc4)c3)c(C)c12 (stereo not drawn) [Example 4] the listed pKi is 5.30 to 6.30

For record CNCCC(Oc1cccc(-n2nc3c(N(C)C)nnc(C)c3c2C)c1)c1ccncc1 (stereo not drawn) [Example 10] the listed pKi is 5.30 to 6.30

For record CNCC(Oc1cccc(-n2nc3c(N(C)C)nnc(C)c3c2C)c1)c1cccs1 (stereo not drawn) [Example 40] the listed pKi is 5.30 to 6.30

For record CNCCC(Oc1cccc(-n2nc3c(N(C)CCCO)nnc(C)c3c2C)c1)c1ccccc1F (stereo not drawn) [Example 32] the listed pKi is 5.30 to 6.30

For record CNCCC(Oc1cccc(-n2nc3c(N4CC(OC)C4)nnc(C)c3c2C)c1)c1ccccc1F (stereo not drawn) [Example 33] the listed pKi is 5.30 to 6.30

====

targetSystem: Human α2δ-1 Subunit of Cav2.2 Calcium Channel (Homo sapiens, UniProt P54289)
test: Human α2δ-1 subunit of Cav2.2 calcium channel assay, [3H]-Gabapentin binding
measurementSetup: human α2δ-1 enriched membranes, 15 nM [3H]-Gabapentin
Experimental: Human α2δ-1 Subunit of Cav2.2 Calcium Channel Assay Human α2δ-1 enriched membranes (2.5 μg) were incubated with 15 nM of radiolabeled [3H]-Gabapentin in assay buffer containing Hepes-KOH 10 mM, pH 7.4. NSB (non specific binding) was measured by adding 10 μM pregabalin. The binding of the test compound was measured at five different concentrations. […] Filter plates were dried at 60° C. for 1 hour and 30 μl of scintillation cocktail were added to each well before radioactivity reading. […]
experimentalEndpoint: Ki

Completed entries (count: 5):
>>> reportedresult("CNCCC(Oc1cccc(-n2nc3c(NC)nnc(C)c3c2C)c1)c1ccccc1 (stereo not drawn)")
"0.5 to 5 µM"
>>> reportedresult("CCNCCC(Oc1cccc(-n2nc3c(N(C)C)nnc(C)c3c2C)c1)c1cccc(F)c1 (stereo not drawn)")
"0.5 to 5 µM"
>>> reportedresult("Cc1nnc(N(C)C)c2nn(-c3cccc(OCC4CCNCC4)c3)c(C)c12")
"≥ 5 µM"
>>> reportedresult("CNCCC(Oc1cccc(-n2nc3c(N(C)C)nnc(C)c3c2C)c1)c1ccc(F)cc1 (stereo not drawn)")
"0.5 to 5 µM"
>>> reportedresult("Cc1nnc(N(C)C)c2nn(-c3cccc(OC(CCN)c4cccc(F)c4)c3)c(C)c12 (stereo not drawn)")
"0.5 to 5 µM"

// below: Ki requested for another compound
# Cc1nnc(N(C)C)c2nn(-c3cccc(OC4CNCc5ccccc54)c3)c(C)c12 (stereo not drawn) with Human α2δ-1 Subunit of Cav2.2 Calcium Channel (Homo sapiens, UniProt P54289): Ki is 0.5 to 5 µM
